Source of measurements: patent US10344034B2

- measurementProtocol: Seven-day toxicokinetic evaluation in rats
- Set-up: species or system SD rats
- experimentalSetup: female, SD, rat, in vivo, po, 240 mg/kg, Cmax
measuredEndpoint: Cmax (ng/mL)
Give a bare numeral; the unit ng/mL is implied.

Query CONC(=O)Nc1ccc(-n2nc3c(c2CN(C)C)c(=O)n(-c2ccc(OC)nn2)c(=O)n3Cc2c(F)cccc2F)cc1 yields Cmax of 41500

====

- measurementProtocol: Rat pharmacokinetics assay
- Type: in vivo, Sprague-Dawley (SD) rats
- experimentalSetup: both sexes, Sprague-Dawley, plasma, oral 10 mg/kg, read-out: Clearance rate CL/F
measuredEndpoint: CL/F (mL/min/kg)
Give a bare numeral; the unit mL/min/kg is implied.

Guide cases for CL/F, answers given:
compound="CCNC(=O)Nc1ccc(-n2nc3c(c2CN(C)C)c(=O)n(-c2cccc(OC)c2F)c(=O)n3Cc2c(F)cccc2F)cc1 [Example 3]" measuredendpoint=CL/F u=mL/min/kg observed=181
compound="CONC(=O)Nc1ccc(-n2nc3c(c2CN(C)C)c(=O)n(-c2cccc(OC)c2F)c(=O)n3Cc2c(F)cccc2F)cc1 [Example 2]" measuredendpoint=CL/F u=mL/min/kg observed=121
compound="CNC(=O)Nc1ccc(-n2nc3c(c2CN(C)C)c(=O)n(-c2ccc(OC)nn2)c(=O)n3Cc2c(F)cccc2F)cc1 [Example 9]" measuredendpoint=CL/F u=mL/min/kg observed=332
compound="CNC(=O)Nc1ccc(-n2nc3c(c2CN(C)C)c(=O)n(-c2cccc(OC)c2F)c(=O)n3Cc2c(F)cccc2F)cc1 [Example 5]" measuredendpoint=CL/F u=mL/min/kg observed=247
compound="CCNC(=O)Nc1ccc(-c2cn3c(c2CN(C)C)c(=O)n(-c2cccc(OC)c2F)c(=O)n3Cc2c(F)cccc2F)cc1 [Example 13]" measuredendpoint=CL/F u=mL/min/kg observed=915

Query CONC(=O)Nc1ccc(-n2nc3c(c2CN(C)C)c(=O)n(-c2ccc(OC)nn2)c(=O)n3Cc2c(F)cccc2F)cc1 [Example 11] yields CL/F of 44.2

Query CCNC(=O)Nc1ccc(-n2nc3c(c2CN(C)C)c(=O)n(-c2ccc(OC)nn2)c(=O)n3Cc2c(F)cccc2F)cc1 [Example 10] yields CL/F of 168

====

- measurementProtocol: Beagle pharmacokinetics assay
- Type: in vivo, beagles
- experimentalSetup: both sexes, dog, plasma, oral 5 mg/kg, read-out: Clearance rate CL/F
measuredEndpoint: CL/F (mL/min/kg)
Give a bare numeral; the unit mL/min/kg is implied.

Query CONC(=O)Nc1ccc(-n2nc3c(c2CN(C)C)c(=O)n(-c2ccc(OC)nn2)c(=O)n3Cc2c(F)cccc2F)cc1 yields CL/F of 14.7

====

- measurementProtocol: Rabbit pharmacokinetics assay
- Type: in vivo, New Zealand rabbits
- experimentalSetup: female, New Zealand, plasma, oral 30 mg/kg, read-out: Plasma concentration Cmax
measuredEndpoint: Cmax (ng/mL)
Give a bare numeral; the unit ng/mL is implied.

Query CONC(=O)Nc1ccc(-n2nc3c(c2CN(C)C)c(=O)n(-c2ccc(OC)nn2)c(=O)n3Cc2c(F)cccc2F)cc1 yields Cmax of 5040

====

- measurementProtocol: Seven-day toxicokinetic evaluation in rats
- Set-up: species or system SD rats
- experimentalSetup: female, SD, rat, in vivo, po, 80 mg/kg, AUC0-∞
measuredEndpoint: AUC(0-inf) (µg·h/mL)
Give a bare numeral; the unit µg·h/mL is implied.

Query CONC(=O)Nc1ccc(-n2nc3c(c2CN(C)C)c(=O)n(-c2ccc(OC)nn2)c(=O)n3Cc2c(F)cccc2F)cc1 [Example 11] yields AUC(0-inf) of 174

====

- measurementProtocol: Beagle pharmacokinetics assay
- Assay type: in vivo, beagles
- experimentalSetup: both sexes, dog, plasma, iv, i.v. 2 mg/kg, read-out: Residence time MRT
measuredEndpoint: MRT (h)
Give a bare numeral; the unit h is implied.

Query CONC(=O)Nc1ccc(-n2nc3c(c2CN(C)C)c(=O)n(-c2ccc(OC)nn2)c(=O)n3Cc2c(F)cccc2F)cc1 yields MRT of 4.02

====

- measurementProtocol: Beagle pharmacokinetics assay
- Assay type: in vivo, beagles
- experimentalSetup: both sexes, dog, plasma, oral 5 mg/kg, read-out: Plasma concentration Cmax
- Procedure: Test Example 6. Beagle Pharmacokinetics Assay of Example 11 of the Present Invention Beagles were used as test animals. The plasma concentrations at various times were determined by LC/MS/MS after intragastric administration of the compound of Example 11, and intravenous administration of the compound of Example 11 to beagles. The pharmacokinetic behavior of the present compound in beagles was studied, and the pharmacokinetic features were evaluated. […]
measuredEndpoint: Cmax

Query CONC(=O)Nc1ccc(-n2nc3c(c2CN(C)C)c(=O)n(-c2ccc(OC)nn2)c(=O)n3Cc2c(F)cccc2F)cc1 [Example 11] yields Cmax of 1090 ng/mL

====

- measurementProtocol: Seven-day toxicokinetic evaluation in rats
- Set-up: species or system SD rats
- experimentalSetup: female, SD, rat, in vivo, po, 720 mg/kg, Cmax
measuredEndpoint: Cmax (µg/mL)
Give a bare numeral; the unit µg/mL is implied.

Query CONC(=O)Nc1ccc(-n2nc3c(c2CN(C)C)c(=O)n(-c2ccc(OC)nn2)c(=O)n3Cc2c(F)cccc2F)cc1 [Example 11] yields Cmax of 69.3

====

- measurementProtocol: Seven-day toxicokinetic evaluation in rats
- Set-up: species or system SD rats
- experimentalSetup: female, SD, rat, in vivo, po, 80 mg/kg, AUC0-t
measuredEndpoint: AUC0-t (µg·h/mL)
Give a bare numeral; the unit µg·h/mL is implied.

Query CONC(=O)Nc1ccc(-n2nc3c(c2CN(C)C)c(=O)n(-c2ccc(OC)nn2)c(=O)n3Cc2c(F)cccc2F)cc1 [Example 11] yields AUC0-t of 173

====

- experimentalSystem: human GnRHr (Homo sapiens (Human), UniProt P30968)
- Sequence (P30968 whole entry): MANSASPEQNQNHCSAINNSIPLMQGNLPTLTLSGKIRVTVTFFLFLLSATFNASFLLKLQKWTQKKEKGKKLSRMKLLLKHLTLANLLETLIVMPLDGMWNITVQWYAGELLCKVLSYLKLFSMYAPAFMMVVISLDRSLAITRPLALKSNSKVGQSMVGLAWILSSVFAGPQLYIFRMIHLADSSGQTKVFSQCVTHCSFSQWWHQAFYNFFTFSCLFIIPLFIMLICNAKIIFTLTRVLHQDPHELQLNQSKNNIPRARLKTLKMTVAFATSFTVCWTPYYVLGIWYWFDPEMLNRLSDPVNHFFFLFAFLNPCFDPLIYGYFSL
- measurementProtocol: Human GnRHr (GnRH receptor) activity assay, Fluo-4 calcium signal in Human GnRHr/CHO stably transfected cell lines
- experimentalSetup: Human GnRHr/CHO cells, GnRH polypeptide stimulant
Quick reference: pIC50 of the listed items.
Give only the number. pIC50 is defined as minus log10 of concentration in molar units.

querysmiles=CCNC(=O)Nc1ccc(-n2nc3c(c2CN(C)C)c(=O)n(-c2cccc(OC)c2F)c(=O)n3Cc2c(F)cccc2C(F)(F)F)cc1 measuredendpoint=pIC50 observed=9.02
querysmiles=CCNC(=O)Nc1ccc(-c2cn3c(c2CN(C)C)c(=O)n(-c2cccc(OC)c2F)c(=O)n3Cc2c(F)cccc2F)cc1 measuredendpoint=pIC50 observed=9.04

API: the following record is the query input.
Query CNC(=O)Nc1ccc(-c2cn3c(c2CN(C)C)c(=O)n(-c2ccc(OC)nn2)c(=O)n3Cc2c(F)cccc2F)cc1 yields pIC50 of 8.63

====

- measurementProtocol: In vivo pharmacodynamics test in rabbit endometriosis model
- experimentalSetup: female, New Zealand, rabbit, in vivo, po
measuredEndpoint: NOAEL at 28 days (mg/kg)
Give a bare numeral; the unit mg/kg is implied.

Query CONC(=O)Nc1ccc(-n2nc3c(c2CN(C)C)c(=O)n(-c2ccc(OC)nn2)c(=O)n3Cc2c(F)cccc2F)cc1 yields NOAEL at 28 days of 30

====

- measurementProtocol: Seven-day toxicokinetic evaluation in rats
- Set-up: species or system SD rats
- experimentalSetup: female, SD, rat, in vivo, po, 240 mg/kg, MRT0-∞
measuredEndpoint: MRT inf
Answer format: number, then unit.

Query CONC(=O)Nc1ccc(-n2nc3c(c2CN(C)C)c(=O)n(-c2ccc(OC)nn2)c(=O)n3Cc2c(F)cccc2F)cc1 [Example 11] yields MRT inf of 9.63 h

====

- measurementProtocol: Beagle pharmacokinetics assay
- Type: in vivo, beagles
- experimentalSetup: both sexes, dog, plasma, iv, i.v. 2 mg/kg, read-out: Area under curve AUC
measuredEndpoint: AUC (ng·h/mL)
Give a bare numeral; the unit ng·h/mL is implied.

Query CONC(=O)Nc1ccc(-n2nc3c(c2CN(C)C)c(=O)n(-c2ccc(OC)nn2)c(=O)n3Cc2c(F)cccc2F)cc1 yields AUC of 2300

====

- measurementProtocol: Rat pharmacokinetics assay
- Format: in vivo, Sprague-Dawley (SD) rats
- experimentalSetup: both sexes, Sprague-Dawley, plasma, oral 10 mg/kg, read-out: Residence time MRT
Values of MRT strictly less than 3 h map to MET, and values of at least 3 h map to NOT MET.

querysmiles=CCNC(=O)Nc1ccc(-n2nc3c(c2CN(C)C)c(=O)n(-c2cccc(OC)c2F)c(=O)n3Cc2c(F)cccc2F)cc1 assignedclass="NOT MET"

Does this compound meet the criterion MRT < 3 h? CONC(=O)Nc1ccc(-n2nc3c(c2CN(C)C)c(=O)n(-c2cccc(OC)c2F)c(=O)n3Cc2c(F)cccc2F)cc1
MET

Does this compound meet the criterion MRT < 3 h? CNC(=O)Nc1ccc(-n2nc3c(c2CN(C)C)c(=O)n(-c2cccc(OC)c2F)c(=O)n3Cc2c(F)cccc2F)cc1
MET

Does this compound meet the criterion MRT < 3 h? CONC(=O)Nc1ccc(-n2nc3c(c2CN(C)C)c(=O)n(-c2ccc(OC)nn2)c(=O)n3Cc2c(F)cccc2F)cc1
MET

Does this compound meet the criterion MRT < 3 h? CCNC(=O)Nc1ccc(-c2cn3c(c2CN(C)C)c(=O)n(-c2cccc(OC)c2F)c(=O)n3Cc2c(F)cccc2F)cc1
NOT MET

Does this compound meet the criterion MRT < 3 h? CNC(=O)Nc1ccc(-n2nc3c(c2CN(C)C)c(=O)n(-c2ccc(OC)nn2)c(=O)n3Cc2c(F)cccc2F)cc1
NOT MET
